Measured values drawn from paper PMC7409302 for this set.

- EXPERIMENTAL SYSTEM: androgen receptor (AR) (Homo sapiens, UniProt P10275, T878A)
- Construct: endogenous full-length AR in LNCaP cells
- Sequence (P10275 1-920 T878A): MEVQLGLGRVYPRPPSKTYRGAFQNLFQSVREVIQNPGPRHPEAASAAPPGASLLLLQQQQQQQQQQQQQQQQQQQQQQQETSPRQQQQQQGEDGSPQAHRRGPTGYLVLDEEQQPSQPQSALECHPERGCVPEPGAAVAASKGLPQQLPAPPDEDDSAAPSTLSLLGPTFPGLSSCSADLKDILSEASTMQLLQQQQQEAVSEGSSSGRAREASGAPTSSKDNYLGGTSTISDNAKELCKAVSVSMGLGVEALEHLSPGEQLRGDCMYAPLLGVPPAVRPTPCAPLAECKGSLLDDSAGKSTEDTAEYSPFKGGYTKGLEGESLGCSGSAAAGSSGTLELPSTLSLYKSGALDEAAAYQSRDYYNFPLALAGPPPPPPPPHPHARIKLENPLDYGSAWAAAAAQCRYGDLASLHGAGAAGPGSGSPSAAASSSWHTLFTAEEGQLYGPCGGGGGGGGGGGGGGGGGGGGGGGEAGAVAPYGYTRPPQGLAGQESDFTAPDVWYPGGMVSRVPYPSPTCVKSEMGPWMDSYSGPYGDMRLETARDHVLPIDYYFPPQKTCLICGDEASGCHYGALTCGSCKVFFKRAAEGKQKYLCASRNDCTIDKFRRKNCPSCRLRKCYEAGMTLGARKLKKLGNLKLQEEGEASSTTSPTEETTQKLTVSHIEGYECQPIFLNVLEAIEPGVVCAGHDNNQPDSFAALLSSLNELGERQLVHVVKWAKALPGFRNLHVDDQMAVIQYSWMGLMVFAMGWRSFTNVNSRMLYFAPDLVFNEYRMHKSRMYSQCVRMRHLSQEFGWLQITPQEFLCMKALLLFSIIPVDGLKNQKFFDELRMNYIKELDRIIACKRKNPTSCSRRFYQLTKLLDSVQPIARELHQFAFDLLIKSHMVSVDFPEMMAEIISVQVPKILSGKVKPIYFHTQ
- PROTOCOL SUMMARY: androgen (R1881)-induced PSA([…].1kb)-luciferase reporter in LNCaP cells
pIC50: −log10 of the molar value.
MEASURE: pIC50

MOLECULE | MEASURE | OBSERVED VALUE
CC(C)(c1ccc(OC[C@H](O)CNS(C)(=O)=O)cc1)c1cc(Cl)c(OC[C@H](O)CCl)c(Cl)c1 [EPI-7170] | pIC50 | 5.97
